# System Name: UniProt:P14780
# Sequence (P14780 whole entry): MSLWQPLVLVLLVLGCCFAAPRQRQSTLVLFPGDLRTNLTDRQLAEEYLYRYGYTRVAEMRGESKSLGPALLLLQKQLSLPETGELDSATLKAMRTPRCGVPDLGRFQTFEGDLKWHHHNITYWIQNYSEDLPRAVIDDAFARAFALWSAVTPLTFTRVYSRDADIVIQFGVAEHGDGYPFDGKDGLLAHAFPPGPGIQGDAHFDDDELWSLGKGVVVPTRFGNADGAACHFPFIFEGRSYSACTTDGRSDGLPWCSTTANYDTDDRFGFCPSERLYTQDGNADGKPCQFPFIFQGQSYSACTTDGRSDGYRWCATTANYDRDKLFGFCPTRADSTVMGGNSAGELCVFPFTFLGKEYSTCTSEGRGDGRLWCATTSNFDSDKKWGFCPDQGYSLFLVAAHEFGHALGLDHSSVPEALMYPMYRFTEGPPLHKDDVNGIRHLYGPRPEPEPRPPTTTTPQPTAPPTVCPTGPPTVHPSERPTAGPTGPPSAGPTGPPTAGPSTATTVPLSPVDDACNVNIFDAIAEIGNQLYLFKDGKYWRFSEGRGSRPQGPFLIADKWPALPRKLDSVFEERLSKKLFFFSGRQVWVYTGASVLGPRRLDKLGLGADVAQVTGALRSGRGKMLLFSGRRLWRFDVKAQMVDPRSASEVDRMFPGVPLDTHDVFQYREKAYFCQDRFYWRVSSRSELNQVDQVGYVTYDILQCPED
Measured Ki, listed per entry.
Entry rule: numbers only, all in nM.

Request: Report Ki for `O=C(NO)[C@@H](NCC1CC1)[C@@H](Cc1cccc(O)c1)C(=O)N[C@H]1c2ccccc2C[C@H]1O` please.
Response: 1260

Could you now look at the following compound, please?
Request: Data request, read-out Ki, for `O=C(C[C@@H](Cc1cccc(O)c1)C(=O)N[C@H]1c2ccccc2C[C@H]1O)NO`
Response: 4140

---

# System Name: A disintegrin and metalloproteinase with thrombospondin motifs 4 (Homo sapiens, UniProt O75173)
# Sequence (O75173 whole entry): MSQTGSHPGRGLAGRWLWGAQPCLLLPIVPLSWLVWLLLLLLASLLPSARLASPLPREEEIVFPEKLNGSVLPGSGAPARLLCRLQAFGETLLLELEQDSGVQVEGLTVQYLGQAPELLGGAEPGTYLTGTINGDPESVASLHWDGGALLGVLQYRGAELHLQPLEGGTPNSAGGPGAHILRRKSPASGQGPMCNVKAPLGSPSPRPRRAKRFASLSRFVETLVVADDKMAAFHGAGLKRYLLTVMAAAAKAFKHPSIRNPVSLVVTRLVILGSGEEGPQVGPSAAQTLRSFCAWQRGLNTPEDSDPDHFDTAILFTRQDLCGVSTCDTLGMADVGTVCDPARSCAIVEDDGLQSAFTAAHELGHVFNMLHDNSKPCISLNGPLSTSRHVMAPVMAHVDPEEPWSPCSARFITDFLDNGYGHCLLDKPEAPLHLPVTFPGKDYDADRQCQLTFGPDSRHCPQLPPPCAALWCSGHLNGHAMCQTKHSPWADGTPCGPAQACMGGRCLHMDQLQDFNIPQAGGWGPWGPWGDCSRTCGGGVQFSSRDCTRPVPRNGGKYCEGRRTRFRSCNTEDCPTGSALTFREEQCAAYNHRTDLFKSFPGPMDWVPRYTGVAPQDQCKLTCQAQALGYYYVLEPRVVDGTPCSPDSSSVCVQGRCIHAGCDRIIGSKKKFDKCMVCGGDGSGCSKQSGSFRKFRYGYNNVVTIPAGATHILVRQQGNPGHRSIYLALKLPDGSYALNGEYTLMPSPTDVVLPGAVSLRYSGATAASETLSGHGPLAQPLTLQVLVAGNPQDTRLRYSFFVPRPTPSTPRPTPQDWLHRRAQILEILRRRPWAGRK
# Assay Procedure: Inhibition of full length recombinant human ADAMTS-4
Measured Endpoint: IC50 (µM)
Entry rule: numbers only, all in µM.

Request: Query (compound): `CSCC[C@H](NC(=O)[C@H](Cc1ccc(O)cc1)NC(=O)[C@@H](NC(=O)[C@H](CCC(=O)O)NC(=O)[C@H](CCCNC(=N)N)NC(=O)[C@H](CCC(N)=O)NC(=O)[C@H](CCCNC(=N)N)NC(=O)[C@H](Cc1ccccc1)NC(=O)[C@@H](CCC(=O)O)NC(=O)[C@H](CC(N)=O)NC(=O)[C@H](Cc1c[nH]cn1)NC(=O)[C@@H](N)CCCCN)[C@@H](C)O)C(=O)N[C@H](C(=O)N[C@@H](Cc1ccccc1)C(=O)N[C@@H](CCCCN)C(=O)NCC(=O)N[C@@H](CCCCN)C(=O)O)C(C)C` ; field requested: IC50
Response: 8
